Molecular target: C-IAP2 BIR3 (Homo sapiens)
Construct: 0.4 μM C-IAP-2 BIR3
Sequence (Q13489 238-349 limits assumed): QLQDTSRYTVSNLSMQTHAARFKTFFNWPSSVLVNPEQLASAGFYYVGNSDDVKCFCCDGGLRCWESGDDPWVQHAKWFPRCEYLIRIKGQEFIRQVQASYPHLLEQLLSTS
Test: Fluorescence polarization peptide binding assay, C-IAP2 BIR3
Conditions: 0.4 μM C-IAP-2 BIR3, 5 nM AVP-diPhe-FAM probe, one hour incubation
quantityName: pIC50
The read-out pIC50 is expressed as -log10 of concentration in moles per litre.

{"columns": ["compound", "experimentalSystem", "pIC50"],
 "data": [
  ["CN[C@@H](C)C(=O)N[C@H](C(=O)N[C@H](C(=O)Nc1snnc1-c1ccccc1)C(C)(C)SC)C1CCCCC1 [Compound 20]", "C-IAP2 BIR3 (Homo sapiens)", 6.69],
  ["CN[C@@H](C)C(=O)N[C@H](C(=O)N[C@H](C(=O)Nc1snnc1-c1ccccc1)C1(C)CCOCC1)C1CCCCC1 [Compound 3]", "C-IAP2 BIR3 (Homo sapiens)", 6.57]
]}

Now turn to the next compound.
// query Value lookup for pIC50; key = CN[C@@H](C)C(=O)N[C@H](C(=O)N[C@H](C(=O)Nc1cc(C)nn1-c1ccccc1)C(C)(C)SCc1ccc(OC)cc1)C1CCCCC1 [Compound 16]
// result 5.88

---

Listed below: Ki values for each entry.
Target: X-IAP BIR3 (Homo sapiens)
Construct: 0.5 μM X-IAP BIR3
Sequence (P98170 241-356 limits assumed): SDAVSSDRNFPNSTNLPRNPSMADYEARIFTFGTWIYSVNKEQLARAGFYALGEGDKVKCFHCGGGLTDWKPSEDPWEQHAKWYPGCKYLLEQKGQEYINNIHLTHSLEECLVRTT
Experiment: Fluorescence polarization peptide binding assay, X-IAP BIR3
Details: determined from the IC50 values (procedure of Keating et al.)
Answer format: numeric, µM implied, no suffix.

{"columns": ["compound", "experimentalSystem", "displayUnit", "Ki"],
 "data": [
  ["CN[C@@H](C)C(=O)N[C@H](C(=O)N[C@H](C(=O)Nc1snnc1-c1ccccc1)C(C)(C)S(C)(=O)=O)C1CCCCC1 [Compound 10]", "X-IAP BIR3 (Homo sapiens)", "µM", 6.44],
  ["CN[C@@H](C)C(=O)N[C@H](C(=O)N(C)[C@H](C(=O)Nc1snnc1-c1ccccc1)C(C)C)C1CCCCC1 [Compound 14]", "X-IAP BIR3 (Homo sapiens)", "µM", 4.7],
  ["CN[C@@H](C)C(=O)N[C@H](C(=O)N[C@H](C(=O)Nc1snnc1-c1ccccc1)C(F)(F)F)C1CCCCC1 [Compound 5]", "X-IAP BIR3 (Homo sapiens)", "µM", 2.41],
  ["CN[C@@H](C)C(=O)N[C@H](C(=O)N[C@H](C(=O)Nc1snnc1-c1ccccc1)C(C)(C)F)C1CCCCC1 [Compound 6]", "X-IAP BIR3 (Homo sapiens)", "µM", 1.57],
  ["CN[C@@H](C)C(=O)N[C@H](C(=O)N[C@H](C(=O)Nc1snnc1-c1ccccc1)C(C)(C)SCNC(C)=O)C1CCCCC1 [Compound 21]", "X-IAP BIR3 (Homo sapiens)", "µM", 3.99],
  ["CN[C@@H](C)C(=O)N[C@H](C(=O)N[C@H](C(=O)Nc1snnc1-c1ccccc1)C(C)(C)SCc1ccc(OC)cc1)C1CCCCC1 [Compound 19]", "X-IAP BIR3 (Homo sapiens)", "µM", 17.8]
]}

// query Value lookup for Ki; key = CN[C@@H](C)C(=O)N[C@H](C(=O)N[C@H](C(=O)Nc1snnc1-c1ccccc1)C(C)(C)SC)C1CCCCC1 [Compound 20]
// result 3.87

// query Record: CN[C@@H](C)C(=O)N[C@H](C(=O)N[C@H](C(=O)Nc1snnc1-c1ccccc1)C1(C)CCOCC1)C1CCCCC1 [Compound 3]
// result 1.99

The reported measurements were obtained from patent US20110046066A1.
